Tested on: Neuregulin-1 EGF-like domain
Experiment: binders of neuregulin-1 EGF-like domain, primary screen, biochemical, small-molecule microarray, 635 nm fluorescence (AID 1081);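 also: binding of the protein to compounds printed on small-molecule microarray slides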
Details: small-molecule microarray binding, higher = more signal
Rule: composite z-score of 1 or more gives MET; anything lower gives NOT MET.

Observe how each entry below is paired with its result.
CO[C@@H]1COC(=O)[C@@H]2CCCN2C(=O)[C@@H](C)COC(=O)[C@H](COCc2ccccc2)NC(=O)CC=C[C@H]1C; NOT MET
COC(=O)[C@@]1(Cc2ccccc2)[C@H]2c3cc(C(=O)N4CCCC4)n(Cc4ccccn4)c3C[C@H]2CN1C(=O)c1ccccc1; MET
CC(CCC(=O)OC[C@H]1O[C@H](C#Cc2ccccc2)C=C[C@@H]1Oc1ccc(C)cc1)=NOC[C@@H](O)COCc1ccco1; NOT MET

q: Given the entry `C[C@@H]1C=CCC(=O)OC[C@H](C)C(=O)N2CCC[C@H]2C(=O)OC1` , answer whether its composite z-score meets or surpasses 1.
a: MET

q: Field entry: `CC=CC1=C(CO)[C@H](O)[C@H]2O[C@H]2[C@H]1O`
a: NOT MET

q: Check `COc1ccc([Si](C)(C)[C@@H]2[C@@H](CC(=O)N3CCC[C@H]3CO)O[C@]3(C(=O)N(Cc4cccc(N5CCC5=O)c4)c4ccccc43)[C@H]2C)cc1` too.
a: MET

q: Same question, `CCOC(=O)C[C@H]1[C@H](OC(=O)c2ccc(C(=O)c3ccccc3)cc2)[C@@H](NC(=O)c2ccc(-c3ccccc3)cc2)c2cc(OCCCO)ccc2N1C(=O)c1ccc2ccccc2n1` this time
a: NOT MET

Data provenance is PubChem BioAssay.
